Experiment: Binding affinity against alpha-1A adrenergic receptor
The reader will find reported Ki values listed item by item below.

Molecule	Ki
N#Cc1ccccc1N1CCN(CC(O)Cn2nc(-c3ccc(I)cc3)c3c2CCN(C(N)=O)C3)CC1 (configuration not stated)	0.036 µM

Q) Endpoint output: Ki of N#Cc1ccccc1N1CCN(CC(Cn2nc(-c3ccc(I)cc3)c3c2CCN(C(N)=O)C3)OC(N)=O)CC1 (configuration not stated) . Value?
A) 0.012 µM

----------
Biological target: Cathepsin S (Homo sapiens)
Sequence (P25774 whole entry): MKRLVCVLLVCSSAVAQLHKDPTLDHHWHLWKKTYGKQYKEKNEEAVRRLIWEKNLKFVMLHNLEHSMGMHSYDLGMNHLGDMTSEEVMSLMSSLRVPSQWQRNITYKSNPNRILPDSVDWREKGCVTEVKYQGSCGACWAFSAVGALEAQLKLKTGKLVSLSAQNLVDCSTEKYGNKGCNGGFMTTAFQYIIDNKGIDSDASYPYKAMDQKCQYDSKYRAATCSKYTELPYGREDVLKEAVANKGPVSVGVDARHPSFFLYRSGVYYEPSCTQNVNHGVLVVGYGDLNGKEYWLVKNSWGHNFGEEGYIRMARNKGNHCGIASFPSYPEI
Test: Inhibitory concentration against cathepsin S
The reader will find reported log10 of IC50 values listed item by item below.
Please interpret these as log10 of IC50 where IC50 is in µM.

Examples from the recorded data:
Molecule	Measured target	log10 of IC50
CCCCn1c(=O)n(C2CCN(CC(O)Cn3nc(-c4ccc(Cl)c(C)c4)c4c3CCN(C(C)=O)C4)CC2)c2ccccc21 (centres undefined)	Cathepsin S (Homo sapiens)	-0.85
Cc1cc(-c2nn(CC(O)CN3CCC(n4c(=O)[nH]c5ccccc54)CC3)c3c2CN(S(C)(=O)=O)CC3)ccc1Cl (centres undefined)	Cathepsin S (Homo sapiens)	-1.22
CC(=O)N1CCc2c(c(-c3ccc(C(F)(F)F)cc3)nn2CC(O)CN2CCC(n3c(=O)[nH]c4ccccc43)CC2)C1 (centres undefined)	Cathepsin S (Homo sapiens)	-1.00
CS(=O)(=O)N1CCc2c(c(-c3ccc(Br)cc3)nn2CCCN2CCC(n3c(=O)[nH]c4ccccc43)CC2)C1	Cathepsin S (Homo sapiens)	-1.30

Q) Endpoint output: log10 of IC50 of "Cn1c(=O)n(C2CCN(CCCn3nc(-c4ccc(Br)cc4)c4c3CCN(S(C)(=O)=O)C4)CC2)c2ccccc21" . Value?
A) -0.85

Q) Endpoint output: log10 of IC50 of CC(=O)N1CCc2c(c(-c3ccc(Br)cc3)nn2CC(O)CN2CCC(n3c(=O)[nH]c4cc(Cl)c(Cl)cc43)CC2)C1 (centres undefined) . Value?
A) -0.96

Q) Endpoint output: log10 of IC50 of Cn1c(=O)n(C2CCN(CC(O)Cn3nc(-c4ccc(C(F)(F)F)cc4)c4c3CCN(S(C)(=O)=O)C4)CC2)c2cc(Cl)ccc21 (centres undefined) . Value?
A) -1.10

Q) Endpoint output: log10 of IC50 of "CS(=O)(=O)N1CCc2c(c(-c3ccc(C(F)(F)F)cc3)nn2CCCN2CCC(n3c(=O)[nH]c4ccccc43)CC2)C1" . Value?
A) -1.30

Q) Endpoint output: log10 of IC50 of "Cn1c(=O)n(C2CCN(CCCn3nc(-c4ccc(C(F)(F)F)cc4)c4c3CCN(S(C)(=O)=O)C4)CC2)c2cc(Cl)ccc21" . Value?
A) -1.00

Q) Endpoint output: log10 of IC50 of CS(=O)(=O)N1CCc2c(c(-c3ccc(Br)cc3)nn2CC(O)CN2CCC(n3c(=O)[nH]c4ccc(Cl)cc43)CC2)C1 (centres undefined) . Value?
A) -1.30

----------
Target: Cathepsin S (Homo sapiens)
pIC50: −log10 of the molar value.
// label = true if pIC50 is not less than 7, otherwise false

Compound	Class name
CS(=O)(=O)N1CCc2c(c(-c3ccc(C(F)(F)F)cc3)nn2CC(O)CN2CCC(n3c(=O)[nH]c4ccccc43)CC2)C1 (centres undefined)	true
CC(=O)N1CCc2c(c(-c3ccc(Cl)cc3)nn2CC(O)CN2CCN(C(c3ccc(F)cc3)c3ccc(F)cc3)CC2)C1 (centres undefined)	false
CC(=O)N1CCc2c(c(-c3ccc(Cl)c(C)c3)nn2C[C@H](O)CN2CCC(n3c(=O)[nH]c4ccc(Cl)cc43)CC2)C1	false

Q) Could you verify whether the entry "CC(=O)N1CCc2c(c(-c3ccc(C(F)(F)F)cc3)nn2C[C@H](O)CN2CCC(n3c(O)nc4ccc(Cl)cc43)CC2)C1" shows pIC50 of no less than 7?
A) false
